Record: compiled IC50 on human Bub1 (Homo sapiens (Human)) from multiple reports.
property_measured: IC50

>>> recorded_value("Cc1nsc(Nc2cc(C#N)ccn2)c1C(=O)Nc1ccc(C(=O)OC(C)(C)C)cc1")
"> 20 µM"
>>> recorded_value("Cc1nsc(Nc2cnc(C(F)(F)F)cn2)c1C(=O)Nc1ccc(OC[C@H]2CCN(CC(F)F)C2)nc1")
"> 20 µM"
>>> recorded_value("Cc1nsc(Nc2cnc3ccccc3n2)c1C(=O)Nc1cccc(NS(=O)(=O)C2CN(CCC(F)(F)F)C2)c1")
"> 20 µM"
>>> recorded_value("Cc1nsc(Nc2cc(C#N)ccn2)c1C(=O)Nc1ccc(Oc2cccnc2)nc1")
"≥ 20 µM"
>>> recorded_value("COc1ccc(NC(=O)c2c(C)nsc2Nc2cnc3ccc(F)cc3n2)cn1")
"> 20 µM"
>>> recorded_value("Cc1nsc(Nc2cc(C#N)ccn2)c1C(=O)Nc1ccc(Oc2ccccc2)nc1")
"> 20 µM"
>>> recorded_value("Cc1nsc(Nc2cc(C#N)ccn2)c1C(=O)Nc1ccc(OC2CCN(CC(F)F)CC2)nc1")
"> 20 µM"
>>> recorded_value("Cc1noc(Nc2cnc(C(F)(F)F)cn2)c1C(=O)Nc1ccc(OC[C@@H]2CCN(CCC(F)(F)F)C2)nc1")
"> 20 µM"
>>> recorded_value("COc1cnc(-c2nn(Cc3ccccc3F)c3c2CCC3)nc1Nc1ccncc1")
"0.1 µM"
>>> recorded_value("Cc1nsc(Nc2cnc(C(F)(F)F)cn2)c1C(=O)Nc1ccc(OCCN(C)C(=O)OC(C)(C)C)nc1")
"> 20 µM"
>>> recorded_value("Cc1nsc(Nc2cnc(C(F)(F)F)cn2)c1C(=O)Nc1ccc(C(=O)NCCN2CCCC(F)C2)cc1 (stereo not shown)")
"17 µM"
>>> recorded_value("Cc1nsc(Nc2cnc(C(F)(F)F)cn2)c1C(=O)Nc1ccc(OCCNCCC(F)(F)F)nc1")
"18 µM"
>>> recorded_value("CNC(=O)c1cncc(Nc2snc(C)c2C(=O)Nc2ccc(F)c(F)c2)n1")
"1.7 µM"
>>> recorded_value("COc1ccc(NC(=O)c2c(C)nsc2Nc2cnc3cc(Cl)ccc3n2)cn1")
"> 20 µM"
>>> recorded_value("Cc1nsc(Nc2nc3c(C(F)(F)F)ccnc3s2)c1C(=O)Nc1ccc(Cl)c(F)c1")
"> 20 µM"
>>> recorded_value("Cc1noc(Nc2cnc(C(F)(F)F)cn2)c1C(=O)Nc1ccc(OC[C@@H]2CCN(CC(F)F)C2)nc1")
"> 20 µM"
